- assayTarget: fusion protein PRM
- Sequence (chain, as listed by the source): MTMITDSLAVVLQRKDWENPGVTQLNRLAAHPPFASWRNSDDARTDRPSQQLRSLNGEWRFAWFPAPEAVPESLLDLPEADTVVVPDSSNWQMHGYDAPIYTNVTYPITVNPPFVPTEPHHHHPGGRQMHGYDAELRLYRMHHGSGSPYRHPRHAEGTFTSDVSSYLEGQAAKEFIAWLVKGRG
quantityMeasured: relative cleavage efficiency

Ask: Give a short answer stating reported relative cleavage efficiency for OmpT protease variant OmpT D97Q (protein) STETLSFTPDNINADISLGTLSGKTKERVYLAEEGGRKVSQLDWKFNNAAIIKGAINWDLMPQISIGAAGWTTLGSRGGNMVDQDWMDSSNPGTWTQESRHPDTQLNYANEFDLNIKGWLLNEPNYRLGLMAGYQESRYSFTARGGSYIYSSEEGFRDDIGSFPNGERAIGYKQRFKMPYIGLTGSYRYEDFELGGTFKYSGWVESSDNDEHYDPGKRITYRSKVKDQNYYSVAVNAGYYVTPNAKVYVEGAWNRVTNKKGNTSLYDHNNNTSDYSKNGAGIENYNFITTAGLKYTF .
Result: < 3%
